- Tested on: KM12
- Test summary: NCI tumour cell line growth inhibition, 48 h
Active and inactive are the calls of the source. Cut-off read from the data, not from the text of the source: active = GI50 up to about 1.1 µM and inactive = higher.
Classes used: label 1 (active), label 0 (inactive)

Cc1ccc(S(=O)OC23CC4CC(CC(C4)C2)C3)cc1 (stereo unspecified) :: label 0
O=C1c2cscc2C(=O)c2c(OCc3ccccc3)ccc(OCc3ccccc3)c21 :: label 0
COc1c(CC=C(C)C)c(O)c(C(CC(C)C)c2c(O)c(CC=C(C)C)c(O)c(C(C)=O)c2O)c(O)c1C(C)=O (stereo unspecified) :: label 1
CC1=NN(C(=O)c2ccccc2O)C(=O)/C1=C/c1ccccc1O :: label 0
CC1(C)C=C(N2CCN(C3=CC(C)(C)NC(C)(C)C3)CC2)CC(C)(C)N1 :: label 0
Cc1ccccc1NC(=O)/C(=N/NC(=O)CC#N)C1C(=O)N(c2ccccc2)N=C1N (stereo unspecified) :: label 0
O=C1C=CC[C@H]2O[C@@H](COC(=O)Cc3ccccc3)C[C@H]2O1 :: label 0
COc1cc2c[n+](C)c3c(c2cc1OC)Cc1cc2c(cc1-3)OCO2 :: label 0
CCOC(=O)c1csc(-c2nc(CCNC(=O)c3ccccc3)sc2Cl)n1 :: label 0
CCCCC(=O)Nc1ccc2cc(C(=O)OC)c(ON3C(=O)c4ccccc4C3=O)nc2n1 :: label 0
Cc1ccc2c(=O)c(C(=O)NNC(=S)NC3CCCCC3)c[nH]c2n1 :: label 0
CCOC(=O)C1=C(C)NC(=S)NC1c1ccccc1 (stereo unspecified) :: label 0
COC(=O)[C@]1(C)CCCC2(C)C1CC[C@H]1C=C(C)[C@H]3CCC12C3 (stereo partly specified) :: label 0
OC1C[C@H](c2ccccc2)C2(C(O)c3ccccc3C2O)[C@@H](c2ccccc2)C1 (stereo partly specified) :: label 0
CC1CCCP(=O)(c2ccccc2)CC1 (stereo unspecified) :: label 0
CC(=O)CCC1(C(=O)OCC(C)C)CCCC1=O (stereo unspecified) :: label 0
CCOc1ccccc1NC(=O)C1=C(C)NC(C)=C(C(=O)Nc2ccccc2OCC)C1c1ccc2c(c1)OCO2 :: label 0
O=C1/C(=C/c2ccc([N+](=O)[O-])cc2)CCCc2ccccc21 :: label 0
NC(=S)N/N=C1\NC(=O)/C(=C/c2ccc3c(c2)OCO3)S1 :: label 0
C=C(Cl)C(Cl)(CBr)CCC(Cl)C(C)C (stereo unspecified) :: label 0
C[C@]12CC[C@H](O)CC1=CC[C@@H]1C2CC[C@]2(C)C(=O)NC(=O)CC12 (stereo partly specified) :: label 0

----------
Listed here: items and their measured GI50.
- System: A549
- Test summary: NCI tumour cell line growth inhibition, 48 h
Active and inactive are the calls of the source. Cut-off read from the data, not from the text of the source: active = GI50 up to about 1.1 µM and inactive = higher.
Result type: GI50

CC(=O)c1cccc(NC(=O)/C(=N\NC(=S)NN)C2C(=O)Nc3ccccc3[S+]2[O-])c1 (stereo not given) :: > 100 µM (inactive)
O=C(CSc1nc2ccc([N+](=O)[O-])cc2s1)c1ccc2ccccc2c1 :: > 100 µM (inactive)
COC(=O)c1c(O)ccc2c1c1c(n2Cc2cc(OC)cc(OC)c2)C(=O)c2ccccc2C1=O :: 5.07 µM (inactive)
COc1ccccc1OCC(=N/NC(=O)c1ccncc1)/N=C/c1cccnc1 :: > 100 µM (inactive)
COC(=O)Cc1cc(=O)n2c([nH]c3ccccc32)c1C#N :: > 100 µM (inactive)

----------
# key: entry, value: GI50
- Tested on: LXFL 529
- Test summary: NCI tumour cell line growth inhibition, 48 h
Calls of active or inactive are those of the source. Rule as the data show it: active = GI50 up to about 1.1 µM and inactive = higher.
Result type: GI50

O=C(NN1C(=O)CSC1c1ccc(Cl)c(Cl)c1)c1ccncc1 (configuration not stated) :: 71.6 µM (inactive)
COc1ccc(/C=N/Nc2nc(C)c3c(n2)Nc2ccccc2NC3=O)cc1 :: 76.7 µM (inactive)
NC1=NC(=O)/C(=C/c2ccccc2[N+](=O)[O-])C(N)=N1 :: > 100 µM (inactive)
c1c(N2CCOCC2)s[s+]c1N1CCOCC1 :: > 100 µM (inactive)
CC(=O)c1ccc(NC(=O)/C(CC(=O)c2sc(-c3cccnc3)nc2C)=N/NC(N)=O)cc1 :: 41.4 µM (inactive)
Cc1ccc(Oc2ccc(C)cc2[N+](=O)[O-])cc1 :: 43.6 µM (inactive)
COC(=O)C(=O)C(CC(=O)Nc1cc(Cl)ccc1Cl)C(=O)OC (configuration not stated) :: > 100 µM (inactive)
CCOC(=O)C1S/C(=N\c2ccc(C)c(C)c2)N=C1C (configuration not stated) :: > 100 µM (inactive)
CC1SC(c2ccccc2)N(Nc2c3ccccc3nc3ccccc23)C1=O (configuration not stated) :: 43.3 µM (inactive)
Cc1cc(Cl)ccc1NC(=O)CCCC(=O)C(C(=O)c1ccccc1)c1ccccc1 (configuration not stated) :: > 100 µM (inactive)
COc1cc(/C=C2\[C@@H]3NC(Cc4c(OC)c(C)c(OC)c(OC)c43)C(=O)N2Cc2ccccc2)c(OC)c(C)c1OC :: 37.5 µM (inactive)
COc1ccc2cccc(C(=O)c3ccc(C)c4c3CCC4)c2c1 :: 29.6 µM (inactive)

----------
- Test system: RXF 393
- Test summary: NCI tumour cell line growth inhibition, 48 h
Active and inactive are the calls of the source. Rule as the data show it: active = GI50 up to about 1.1 µM and inactive = higher.
Result type: GI50

CN(C)NC(=S)Nc1ccccc1Br :: > 100 µM (inactive)
CC(C)OP(=O)(OC(C)C)/C(C#N)=C/c1ccco1 :: > 100 µM (inactive)
CCc1cccc(=O)c([O-])c1.CCc1cccc(=O)c([O-])c1.[Bi+3].[Cl-] :: 18.2 µM (inactive)
CSC(SC)=C1C(=O)NN=C1C :: > 100 µM (inactive)
CC(C)(C)OC(=O)CCC1NC(=O)[C@@H]2Cc3c([nH]c4ccccc34)C(c3ccccc3)N2C1=O (stereo partly specified) :: 18.2 µM (inactive)
COc1ccc2c(c1)C(OC)C1c3c(cc4c(c3-2)OCO4)CCN1C (stereo unspecified) :: 2.06 µM (inactive)
CC1CC(C)(C)CC(OCCN2CCCCC2)(c2ccccc2)C1 (stereo unspecified) :: 10.9 µM (inactive)
Cc1ccc2c(=O)c(C(=O)NNC(=S)NC3CCCCC3)c[nH]c2n1 :: > 100 µM (inactive)
Oc1ccc(O)c(CNc2ccccc2)c1 :: 5.64 µM (inactive)
COC1=CC(=O)c2c(c(-c3nc(C)cs3)cn2C)C1=O :: 20.4 µM (inactive)
O=C1c2cccc3cccc(c23)C(=O)N1CCN(CCO)CCO :: 20.9 µM (inactive)

----------
- Test system: SK-MEL-28
- Test summary: NCI tumour cell line growth inhibition, 48 h
Activity calls are given as the source filed them. No stated cut-off is given here; in the data, active = GI50 up to about 1.1 µM and inactive = higher.
Classes used: active, inactive

CSc1ccc2c(c1)c(CCN)c(C)n2Cc1ccccc1Cl :: inactive
CN(C)CCNC(=O)c1ccc(Cl)c2c(Nc3ccc(S(=O)(=O)N=C(N)N)cc3)c3ccccc3nc12 :: inactive
Cc1cc2c(c(S(=O)(=O)c3ccccc3[N+](=O)[O-])c1)NCCC2 :: inactive
Cc1cnc2nc(-c3ccc(F)cc3)cc(O)c2c1 :: inactive
OC1C[C@H](c2ccccc2)C2(C(O)c3ccccc3C2O)[C@@H](c2ccccc2)C1 (stereo partly specified) :: inactive
CC1SC(c2ccccc2)N(Nc2c3ccccc3nc3ccccc23)C1=O (stereo unspecified) :: inactive
O[C@@H]1CCC[C@@H]2NC[C@@H](c3ccc4c(c3)OCO4)[C@H]12 :: inactive
O=C(O)C1[C@@H](C(=O)O)C1(Br)CBr (stereo partly specified) :: inactive
CNC(=O)OCc1nccc2c(C)c3[nH]c4ccc(OC)cc4c3cc12 :: inactive
COc1cc(/C=C(\C#N)C(N)=O)cc(Br)c1O :: inactive
c1ccc2c(CN3CCN(Cc4c[nH]c5ccccc45)CC3)c[nH]c2c1 :: inactive
COC(=O)C1(C)CC2C(C)(CCC3(C)C4=CC=C5C(=CC(=O)C(O)=C5C)C4(C)CCC23C)CC1O (stereo unspecified) :: active
COc1cc(/C=C2\[C@@H]3NC(Cc4c(OC)c(C)c(OC)c(OC)c43)C(=O)N2Cc2ccccc2)c(OC)c(C)c1OC :: inactive
O=C(O)c1ccc(C(=O)Nc2cccc3ccccc23)c(C(=O)O)c1 :: inactive
CCOC(=O)COc1ccccc1/C=C1\CCC(CN(C)C)C1=O (stereo unspecified) :: inactive
Brc1cc2c(cc1C1SCCS1)OCO2 :: inactive
CC1CCCP(=O)(c2ccccc2)CC1 (stereo unspecified) :: inactive
CC1(Cc2cc3c(cc2C2(c4ccc([N+](=O)[O-])cc4)OCCO2)OCO3)OCCO1 :: inactive
CCCCCCCCCCCCCCCCNc1ccc2c(c1)OCCOCCOCCOCCO2 :: inactive
CCN(CC)CCn1ncc2c3c(=O)c4cccnc4n(CCN(CC)CC)c3ccc21 :: inactive
CC(=O)c1cccc(NC(=O)/C(=N\NC(=S)NN)C2C(=O)Nc3ccccc3[S+]2[O-])c1 (stereo unspecified) :: inactive

----------
- Test system: OVCAR-8
- Test summary: NCI tumour cell line growth inhibition, 48 h
The source made the active and inactive calls. No stated cut-off is given here; in the data, active = GI50 up to about 1.1 µM and inactive = higher.
Outcome codes: active, inactive

COC1=CC(=O)c2c(c(-c3nc(C)cs3)cn2C)C1=O :: inactive
Cn1nc(-c2ccccc2)c(C(=O)/C=C/c2ccc(F)cc2)c(N2CCOCC2)c1=O :: inactive
CC1=CC=CC(C)(C)CC1(O[Si](C)(C)C)C(F)(F)F (configuration not stated) :: inactive
Clc1nc(Cl)c(CBr)c(Cl)n1 :: inactive
Cc1ccc2c(c1)C1C(CO2)C(c2ccccc2)=NN1c1ccccc1 (configuration not stated) :: inactive
COc1cc(/C=C/c2ccccn2)cc(OC)c1OC :: inactive
Cc1ccc(C(=O)/C=C2\Nc3c(c(=O)oc4ccccc34)N=C2NC23CC4CC(CC(C4)C2)C3)cc1 :: inactive
CCCCCCCCCCCCCCCCCC(=O)OCC1OC(OC)C(NC(=O)N(CCCl)N=O)C(O)C1O (configuration not stated) :: inactive
CC1=NN(C(=O)c2ccc(Cl)cc2)C(=O)/C1=C/c1cccc([N+](=O)[O-])c1 :: inactive
Cc1ccccc1NC(=O)/C(=N/NC(=O)CC#N)C1C(=O)N(c2ccccc2)N=C1N (configuration not stated) :: inactive
O=C(CSc1nc2ccc([N+](=O)[O-])cc2s1)c1ccc2ccccc2c1 :: inactive
CC(C)c1ccc2c(c1)C=C1OC(=O)[C@]3(C)CCC[C@@]2(C)C13 (some centres not stated) :: inactive
COc1cccc(-c2nc(O)c3ccccc3n2)c1 :: inactive
O=C(O)CCC1(c2ccccc2)NC(=O)NC1=O (configuration not stated) :: inactive
CC1SC(c2ccccc2)N(Nc2c3ccccc3nc3ccccc23)C1=O (configuration not stated) :: inactive
CC(C)(C)N(Cc1ccc2c(c1)OCO2)C(=O)/C=C\[S+]([O-])c1ccccc1 (configuration not stated) :: inactive
COc1ccccc1C1C2=C(COC2=O)Oc2cc3c(cc21)OCO3 (configuration not stated) :: inactive
CC1=NN(C(=O)c2ccccc2O)C(=O)/C1=C/c1ccccc1O :: active
COc1ccc(S(=O)(=O)c2ccccc2[N+](=O)[O-])cc1 :: inactive
NNC(=O)c1nnn(N)c1S :: inactive
CC1(C)S[C@@H]2[C@H](NC(=O)CCC[C@@H](N)C(=O)O)C(=O)N2[C@H]1C(=O)O :: inactive
CCOC(=O)CCC(=O)C1c2cccc(O)c2C(=O)c2c(O)cc(C)cc21 (configuration not stated) :: active
